I'd appreciate it if you could supply cytotoxicity at 70.5 h values for the items below.
# assay-details: Human HepG2 cell viability assay in 384 well format
# Type: toxicity, cell-based
# Set-up: dose 125 nL, time 70.5 hour; concentration not given beside the values
# condition-summary: HepG2 cells, read-out: Inhibition
Provide the reading as a plain figure in %.

In: Name the recorded cytotoxicity at 70.5 h of the compound listed here: CNC(=O)CN1CC[C@H]2CN(C(=O)c3cc[nH]n3)C[C@H]2C1
Out: -8.85

In: Name the recorded cytotoxicity at 70.5 h of the compound listed here: NC(=O)C1CN(Cc2c(O)ccc3oc4c(c23)CCCC4)CCO1 (configuration not stated)
Out: -5.87

In: Name the recorded cytotoxicity at 70.5 h of the compound listed here: Cc1occc1C(=O)NCC(=O)N1CCCC(c2ccccc2)CC1 (configuration not stated)
Out: -3.67

In: Name the recorded cytotoxicity at 70.5 h of the compound listed here: CC(NC(=O)Cn1cccn1)c1ccc2c(c1)OCCCO2 (configuration not stated)
Out: 52.1

In: Name the recorded cytotoxicity at 70.5 h of the compound listed here: CSCCC(=O)N1CCCC1c1ccsc1 (configuration not stated)
Out: 13.3

In: Name the recorded cytotoxicity at 70.5 h of the compound listed here: COc1ccccc1NC(=O)NC(C)c1nc[nH]n1 (configuration not stated)
Out: 0.321

In: Name the recorded cytotoxicity at 70.5 h of the compound listed here: COC(=O)c1cccnc1N1CCC(Oc2cccc(F)c2)CC1
Out: 1.14

In: Name the recorded cytotoxicity at 70.5 h of the compound listed here: COc1ccc(C(=O)O)c(OCC(=O)NC(C)c2ccc(F)cc2)c1 (configuration not stated)
Out: -6.92

In: Name the recorded cytotoxicity at 70.5 h of the compound listed here: CC/C=C(/C)C(=O)NCc1ccnc(OC)c1
Out: -8.93

In: Name the recorded cytotoxicity at 70.5 h of the compound listed here: Cc1cc(C(=O)NCc2cccs2)c2c(C3CCCN3)noc2n1 (configuration not stated)
Out: -6.49

In: Name the recorded cytotoxicity at 70.5 h of the compound listed here: O=C(Nc1nncs1)N(Cc1cccc(O)c1)C1CC1
Out: -4.79

In: Name the recorded cytotoxicity at 70.5 h of the compound listed here: Cc1noc(C)c1CNCC1Cn2nncc2CO1 (configuration not stated)
Out: -2.84
